Molecular target: T1, EsCas13d, nuclease-dead (Eubacterium siraeum, UniProt B0MS50, R295A;H300A;R849A;H854A)
T1 sequence: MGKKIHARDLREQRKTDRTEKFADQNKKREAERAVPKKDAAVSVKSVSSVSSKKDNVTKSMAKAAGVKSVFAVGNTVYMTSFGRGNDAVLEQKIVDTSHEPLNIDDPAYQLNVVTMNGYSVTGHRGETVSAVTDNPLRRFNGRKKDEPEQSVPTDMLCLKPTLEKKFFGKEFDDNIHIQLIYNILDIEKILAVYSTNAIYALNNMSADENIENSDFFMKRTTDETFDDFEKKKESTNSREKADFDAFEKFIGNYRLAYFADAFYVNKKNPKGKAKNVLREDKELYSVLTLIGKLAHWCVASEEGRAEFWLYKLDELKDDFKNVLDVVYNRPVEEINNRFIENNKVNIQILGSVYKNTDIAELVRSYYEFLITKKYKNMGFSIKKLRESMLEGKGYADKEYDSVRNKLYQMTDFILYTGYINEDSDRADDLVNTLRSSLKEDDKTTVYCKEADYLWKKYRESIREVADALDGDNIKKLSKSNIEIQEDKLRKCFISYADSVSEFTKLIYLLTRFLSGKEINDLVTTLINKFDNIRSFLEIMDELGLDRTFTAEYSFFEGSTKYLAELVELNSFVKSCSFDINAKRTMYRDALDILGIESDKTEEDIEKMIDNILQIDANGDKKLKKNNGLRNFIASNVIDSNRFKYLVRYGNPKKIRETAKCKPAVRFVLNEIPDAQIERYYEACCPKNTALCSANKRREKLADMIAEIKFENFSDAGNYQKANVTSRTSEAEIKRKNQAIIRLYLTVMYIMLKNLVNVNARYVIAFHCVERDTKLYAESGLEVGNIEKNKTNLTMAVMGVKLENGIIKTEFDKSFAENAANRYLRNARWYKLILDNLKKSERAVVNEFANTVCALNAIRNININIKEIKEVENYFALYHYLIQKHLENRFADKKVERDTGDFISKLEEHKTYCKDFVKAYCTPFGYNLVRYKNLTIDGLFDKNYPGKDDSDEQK
Experiment: crRNA (strand 1, pre-loaded); Mg2+; 40 mM Tris-HCl pH 7.5, 150 mM NaCl, 6 mM MgCl2, 1 mM DTT, 0.1% Tween-20, 0.2 mg/ml BSA; 25 C; 10 min per concentration, then washed
Conditions: tags: His6-TwinStrep-SUMO cleaved; N-terminal SNAP kept (SNAP-Surface 488); label: 3' end held by stalled T7 RNA polymerase
Hi! Just check whether Kd is below 20 nM. Below gives label 1, equal or above gives label 0.

>  <binder>
target 2 MT 5'PFS AAG 3'PFS CUC (mixed) RNA 1: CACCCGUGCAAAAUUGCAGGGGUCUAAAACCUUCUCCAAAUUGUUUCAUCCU RNA 2: GGGAAUGGAUCCACAUCUACGAAUUCAAGAGGAUGAAACAAUUUGGAGAAGCUCAGAUCGGAAGAGCACACGU

>  <assigned_class>
label 1

$$$$
>  <binder>
target 1 MT 5'PFS GCA 3'PFS AGA (mixed) RNA 1: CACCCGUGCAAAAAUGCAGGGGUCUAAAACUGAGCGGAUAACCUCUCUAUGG RNA 2: GGGAAUGGAUCCACAUCUACGAAUUCGCACCAUAGAGAGGUUAUCCGCUCAAGAAGAUCGGAAGAGCACACGU

>  <assigned_class>
label 0

$$$$
>  <binder>
target 1 insC 3' of 22,insG 3' of 21 (mixed) RNA 1: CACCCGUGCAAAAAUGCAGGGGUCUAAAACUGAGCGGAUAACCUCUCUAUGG RNA 2: GGGAAUGGAUCCACAUCUACGAAUUCGUACCCGAUAGAGAGGUUAUCCGCUCACCGAGAUCGGAAGAGCACACGU

>  <assigned_class>
label 0

$$$$
>  <binder>
target 3 G4A,C6A (mixed) RNA 1: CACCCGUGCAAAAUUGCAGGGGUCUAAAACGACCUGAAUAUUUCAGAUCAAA RNA 2: GGGAAUGGAUCCACAUCUACGAAUUCGUUUUUGAUCUGAAAUAUUAAAGUCUGCAGAUCGGAAGAGCACACGU

>  <assigned_class>
label 0

$$$$
>  <binder>
target 1 MT 5'PFS CUU 3'PFS UAU (mixed) RNA 1: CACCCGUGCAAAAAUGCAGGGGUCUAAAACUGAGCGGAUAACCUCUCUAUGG RNA 2: GGGAAUGGAUCCACAUCUACGAAUUCCUUCCAUAGAGAGGUUAUCCGCUCAUAUAGAUCGGAAGAGCACACGU

>  <assigned_class>
label 0

$$$$
>  <binder>
target 3 insA 3' of 3,insA 3' of 3 (mixed) RNA 1: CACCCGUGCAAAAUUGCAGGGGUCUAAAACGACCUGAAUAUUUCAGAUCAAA RNA 2: GGGAAUGGAUCCACAUCUACGAAUUCGUUUUUGAUCUGAAAUAUUCAGGAAUCUGCAGAUCGGAAGAGCACACGU

>  <assigned_class>
label 1

$$$$
>  <binder>
target 1 insG 3' of 7,insU 3' of 2 (mixed) RNA 1: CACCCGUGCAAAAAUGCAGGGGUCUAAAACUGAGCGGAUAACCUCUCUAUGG RNA 2: GGGAAUGGAUCCACAUCUACGAAUUCGUACCAUAGAGAGGUUAUCGCGCUCUACCGAGAUCGGAAGAGCACACGU

>  <assigned_class>
label 1

$$$$
